These data points were gathered from patent US20160297884A1.

biological target: T1, cynomolgus monkey BCMA (cynomolgus monkey, UniProt A0A2K5UD97 1-53); test: SPR, IgG immobilised, 25 C
T1 construct: Soluble analyte in SPR; construct not described; also called cyBCMA; Cyno BCMA
T1 sequence (A0A2K5UD97 entry or part of it): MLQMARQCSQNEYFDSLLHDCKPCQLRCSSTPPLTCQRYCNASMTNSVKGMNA
REPORTED_METRIC: Kd

BINDER	RESULT
L1.GDF/L3.NY/H3.AQ (antibody, V domains shown, IgG) VH: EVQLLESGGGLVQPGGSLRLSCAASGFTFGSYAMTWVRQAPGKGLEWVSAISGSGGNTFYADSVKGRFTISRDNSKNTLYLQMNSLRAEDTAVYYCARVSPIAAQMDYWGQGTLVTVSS VL: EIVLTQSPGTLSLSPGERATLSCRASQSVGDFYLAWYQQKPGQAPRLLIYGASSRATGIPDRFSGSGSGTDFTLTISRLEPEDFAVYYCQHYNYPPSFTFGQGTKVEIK	1.2 nM
L1.GDF/L3.KW/H3.AL (antibody, V domains shown, IgG) VH: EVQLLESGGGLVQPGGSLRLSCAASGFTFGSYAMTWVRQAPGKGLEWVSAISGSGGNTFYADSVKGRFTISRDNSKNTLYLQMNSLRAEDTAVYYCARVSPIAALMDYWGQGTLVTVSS VL: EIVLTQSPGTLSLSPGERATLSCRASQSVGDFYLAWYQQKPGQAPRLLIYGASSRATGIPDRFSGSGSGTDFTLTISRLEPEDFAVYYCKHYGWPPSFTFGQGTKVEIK	56.7 nM
